# ASSAY_TARGET: human KHK-A (Homo sapiens (Human), UniProt P50053)
# Sequence (P50053 other isoform, or with tags, fused parts or gaps): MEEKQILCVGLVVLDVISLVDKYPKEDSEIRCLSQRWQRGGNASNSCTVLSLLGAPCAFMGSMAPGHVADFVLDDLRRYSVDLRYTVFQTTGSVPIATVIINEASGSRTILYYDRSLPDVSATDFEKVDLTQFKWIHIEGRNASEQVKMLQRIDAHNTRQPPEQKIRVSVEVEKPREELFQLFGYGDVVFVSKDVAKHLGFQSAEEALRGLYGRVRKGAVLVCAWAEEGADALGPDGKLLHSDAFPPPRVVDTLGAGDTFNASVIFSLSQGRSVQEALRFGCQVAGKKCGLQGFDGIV
# ASSAY_OVERVIEW: KHK Biochemical Assay (IC50), ADP-Glo, KHK-A
# CONDITION_NOTES: average of at least two separate assays
# note: boundary value 0.01 µM maps to NOT MET; IC50 below it maps to MET

{"columns": ["COMPOUND", "GROUP"],
 "data": [
  ["C[C@H]1[C@H](O)CN1c1nc(-c2ccc3c(c2)OCCC32COC(=O)N2)c2c(n1)C(F)(F)CC2 (stereo partly drawn)", "NOT MET"],
  ["C[C@H]1[C@H](O)CN1c1nc(-c2ccc3c(c2)CC2OC(=O)NC32)c2c(n1)C(F)(F)CC2 (stereo partly drawn)", "NOT MET"],
  ["C[C@H]1[C@H](O)CN1c1nc(-c2ccc(OC3CC3)c([S@@](C)(=N)=O)c2)c2c(n1)C(F)(F)CC2 (single isomer, unassigned)", "MET"],
  ["C[C@H]1CCCN1c1nc(-c2ccc(C3(N)COC3)cc2)c2c(n1)C(F)(F)CC2", "NOT MET"],
  ["C[C@H]1CCN1c1nc2c(c(-c3cccc4c3CC3C(C(=O)O)C43)n1)CCC2 (stereo partly drawn)", "NOT MET"]
]}

// query Does the reported IC50 of the following compound sit strictly below 0.01 µM? Cc1cc(-c2nc(N3C[C@@H](O)[C@@H]3C)nc3c2CCC3(F)F)cc(S(C)(=N)=O)c1 (stereo partly drawn)
// result NOT MET

// query Same thing, different compound: C[C@H]1CCN1c1nc(-c2cccc(N=[S@@](C)(N)=O)c2)c2c(n1)C(F)(F)CC2 (single isomer, unassigned)
// result MET

// query Next: COC(=O)[C@@H]1C[C@@]12C(=O)Nc1ccc(-c3nc(N4CC[C@@H]4C)nc4c3CCC4)cc12 (racemic)
// result NOT MET

// query Follow-up item: C[C@H]1[C@H](O)CN1c1nc(-c2ccc3c(c2)COC[C@@]32CCC(=O)N2)c2c(n1)C(F)(F)CC2 (single isomer, unassigned)
// result NOT MET

// query Let us now turn to C[C@H]1[C@H](O)CN1c1nc(-c2ccc3c(c2)CC[C@@]32COCC(=O)N2)c2c(n1)C(F)(F)CC2 (single isomer, unassigned)
// result MET

// query Entry to check: Cc1ccc(-c2nc(N3C[C@@H](O)[C@@H]3C)nc3c2CCC3(F)F)cc1S(C)(=N)=O (stereo partly drawn)
// result MET

// query Now consider C[C@H]1[C@H](O)CN1c1nc(-c2cccc([S@@](C)(=N)=O)c2)c2c(n1)C(F)(F)CC2 (single isomer, unassigned) .
// result NOT MET
